# Tested on: Phospholipidosis
# assay.explanation: Literature-mined public compounds from Lowe et al phospholipidosis modelling dataset
measurement.name: Phospholipidosis

Example entries begin here.
The reported Phospholipidosis value, Phospholipidosis, for CC[C@H]1OC(=O)[C@H](C)[C@@H](O[C@H]2C[C@@](C)(OC)[C@@H](O)[C@H](C)O2)[C@H](C)[C@@H](O[C@@H]2O[C@H](C)C[C@H](N(C)C)[C@H]2O)[C@](C)(O)C[C@@H](C)CN(C)[C@H](C)[C@@H](O)[C@]1(C)O [AZITHROMYCIN] reads Positive

The reported Phospholipidosis value, Phospholipidosis, for CCOC(=O)N1CCC(=C2c3ccc(Cl)cc3CCc3cccnc32)CC1 [LORATADINE] reads Positive

The reported Phospholipidosis value, Phospholipidosis, for Cl.Cl.O=C(CCN1CCN2CCCC2C1)N1c2ccccc2Sc2ccc(Cl)cc21 (configuration not stated) [AZACLORZINE HYDROCHLORIDE] reads Negative

The reported Phospholipidosis value, Phospholipidosis, for Cc1cccc(Nc2cc(Cl)nc(SCC(=O)O)n2)c1C [PIRINIXIC ACID] reads Negative

The reported Phospholipidosis value, Phospholipidosis, for CCN(CC)CCOc1ccc2c(c1)C(=O)c1cc(OCCN(CC)CC)ccc1-2 [TILORONE] reads Positive

***
The reported Phospholipidosis value, Phospholipidosis, for Nc1nc(NC2CC2)c2ncn([C@H]3C=C[C@@H](CO)C3)c2n1 [ABACAVIR] reads Negative

The reported Phospholipidosis value, Phospholipidosis, for CC1(C)C(=O)NC(=O)N1CC(COc1ccc(-c2ccc(OC(F)(F)F)cc2)cc1)NC=O (configuration not stated) reads Negative
